# procedure-details: log P determination by HPLC on reversed-phase (C18) columns, OECD Guideline 117
# Type: physicochemical
# particulars: pH 2.7
Items are presented alongside their recorded logp-acidic.

Record excerpt, results attached:
- compound: "COC(=O)c1cc(F)ccc1-c1ncc(C(=O)N(C)c2cccnc2)n1C"
  metric-name: "logp-acidic"
  reported: 1.04
- compound: "CN(C(=O)c1cnc(-c2ccc(F)c3ccccc23)n1C)c1cccnc1"
  metric-name: "logp-acidic"
  reported: 1.57
- compound: "COc1ncc(-c2ncc(C(=O)N(C)c3cccnc3)n2C)cc1C(F)(F)F"
  metric-name: "logp-acidic"
  reported: 1.75
- compound: "CCOc1ccc(-c2ncc(C(=O)N(C)c3cccnc3)n2C)cn1"
  metric-name: "logp-acidic"
  reported: 0.93
- compound: "COc1cc(-c2ncc(C(=O)N(C)c3cccnc3)n2C)ccn1"
  metric-name: "logp-acidic"
  reported: 1
- compound: "COc1ncc(-c2ncc(C(=O)N(C)c3cccnc3)n2C)cc1Cl"
  metric-name: "logp-acidic"
  reported: 1.28

What value of measured logp-acidic is listed for `CCOC(=O)COc1cc(-c2ncc(C(=O)N(C)c3cccnc3)n2C)cc(F)c1F` ?
1.80

Looking for the measured logp-acidic of `CN(C(=O)c1cnc(-c2cccc(C(F)(F)C(F)(F)F)c2)n1C)c1cccnc1` , can you help?
2.09

* * *

# procedure-details: log P determination by HPLC on reversed-phase (C18) columns, OECD Guideline 117
# Assay type: physicochemical
# particulars: pH 2.7
# Procedure: The log P values were determined in accordance with OECD Guideline 117 (EC Directive 92/69/EEC) by HPLC (high-performance liquid chromatography) using reversed-phase (RP) columns (C18), by the following methods: [a] The LC-MS determination in the acidic range was carried out at pH 2.7 with 0.1% aqueous formic acid and acetonitrile (contains 0.1% formic acid) as mobile phases; linear gradient from 10% acetonitrile to 95% acetonitrile. [b] […]
metric-name: logp-acidic
Would you mind answering with just the numeric figure?

The examples below pair each entry with its known result.
- compound: "CN(C(=O)c1cnc(-c2cccc3c2OCC3)n1C)c1cccnc1"
  logp-acidic: 0.7
- compound: "COc1cc(-c2ncc(C(=O)N(C)c3cccnc3)n2C)cc(OC)n1"
  logp-acidic: 1.37
- compound: "CN(C(=O)c1cnc(-c2cccc([S+]([O-])C(F)(F)F)c2)n1C)c1cccnc1 (stereo not shown)"
  logp-acidic: 1.28

# query: logp-acidic of entry `COc1ncccc1-c1ncc(C(=O)N(C)c2cccnc2)n1C`
0.53

What value of measured logp-acidic is listed for `CN(C(=O)c1cnc(-c2cccc(COC(=O)C3CC3)c2)n1C)c1cccnc1` ?
1.28

Which logp-acidic value is on record for `COc1ccccc1-c1ncc(C(=O)N(C)c2cccnc2)n1C` ?
0.65

Any idea what logp-acidic was measured for `CN(C(=O)c1cnc(-c2ccccc2OCC(N)=O)n1C)c1cccnc1` ?
0.23

Entry under review: `CSc1ccccc1-c1ncc(C(=O)N(C)c2cccnc2)n1C` . Reported logp-acidic?
1.14

I have this compound here, `CCOc1ncccc1-c1ncc(C(=O)N(C)c2cccnc2)n1C` , and I need its recorded logp-acidic.
0.8

Param item = `CCOc1ncc(-c2ncc(C(=O)N(C)c3cccnc3)n2C)cc1C#N` ; retrieve measured logp-acidic.
1.50

Consider the compound `CCOC(=O)c1cc(-c2ncc(C(=O)N(C)c3cccnc3)n2C)on1` and give its measured logp-acidic.
1.42

Which logp-acidic value belongs to `CC(C)Oc1ccc(-c2ncc(C(=O)N(C)c3cccnc3)n2C)cc1C#N` ?
1.55

Entry `CN(C(=O)c1cnc(-c2cnc(N3CCOCC3)c(C#N)c2)n1C)c1cccnc1` has what logp-acidic?
1.16

Quick check: logp-acidic of `CCOc1ncc(-c2ncc(C(=O)N(CC)c3cccnc3)n2C)cc1C#N` ?
1.69
